# Tested on: ATF4 luciferase reporter in HEK293T cells
# protocolText: ATF4-Luc assay (in vitro model of VWMD)
# Format: cell-based, human
# experimentalSetup: Homo sapiens, HEK-293T, 7 h, HEK293T cells carrying the ATF4 luciferase reporter, 1 μg/mL tunicamycin, One Glo luminescence
The reader will find reported EC50 values listed item by item below.
measure: EC50

1. O=C(NC12CC(n3cnc(C(=O)N4CC[C@H](OC(F)(F)F)C4)c3)(C1)C2)[C@H]1C[C@@H](O)c2cc(Cl)ccc2O1: < 10 nM
2. O=C(NC12CC(n3cc([C@H]4C[C@@H](OC(F)F)C4)nn3)(C1)C2)[C@H]1C[C@@H](O)c2cc(Cl)ccc2O1: < 10 nM
3. O=C(COc1ccc(Cl)c(F)c1)NC12CCC(n3cc(OCCCOC(F)(F)F)cn3)(C1)C2: 50 to 250 nM
4. O=C(NC12CC(n3cc(C[C@H]4C[C@H](OC(F)(F)F)C4)cn3)(C1)C2)[C@H]1C[C@@H](O)c2cc(Cl)ccc2O1: 10 to 50 nM
5. O=C(NC12CC(n3cc(OCCCC(F)(F)F)cn3)(C1)C2)[C@H]1C[C@@H](O)c2cc(Cl)ccc2O1: < 10 nM
6. O=C(N[C@H]1CC[C@H](n2cc(OCCCC(F)(F)F)cn2)CC1)[C@H]1C[C@@H](O)c2cc(Cl)c(F)cc2O1: < 10 nM
7. O=C(COc1cc(F)c(Cl)c(Br)c1)N[C@H]1C[C@H]2C[C@@H]1C[C@@H]2NC(=O)CO[C@H]1C[C@@H](OC(F)(F)F)C1: 10 to 50 nM
8. COc1cc2cn(C34CC(NC(=O)[C@H]5C[C@@H](O)c6cc(Cl)ccc6O5)(C3)C4)nc2cn1: 10 to 50 nM
9. O=C(COc1ccc(Cl)c(F)c1)NC12CC(c3ccnc(OCCCOC(F)(F)F)c3)(C1)C2: < 10 nM
10. O=C(NC12CC(n3cc(-c4ccc(OC(F)(F)F)cn4)cn3)(C1)C2)[C@@H]1C[C@@H](O)c2cc(Cl)ccc2O1: < 10 nM
11. O=C(N[C@H]1CC[C@H](n2cc(OCCOC(F)(F)F)cn2)CC1)[C@H]1C[C@H](O)c2cc(Cl)ccc2O1: 50 to 250 nM
